Reported values of inhibition for individual entries
- Measured target: Potassium voltage-gated channel subfamily A member 5 (Homo sapiens)
- Test description: Inhibition of Kv1.5 expressed in LTK- cells by whole cell patch clamp assay at 1uM
- Type: functional, cell-based
Provide the reading as a plain figure in %.

The reported Potassium voltage-gated channel subfamily A member 5 (Homo sapiens) inhibition of CCc1c(C)[nH]c2c1/C(=N/OC(=O)Nc1ccccc1)CCC2 is 91

The reported Potassium voltage-gated channel subfamily A member 5 (Homo sapiens) inhibition of O=C(Nc1ccc(Cl)cc1)O/N=C1\CCCC2=C1C1CCCC1N2 (stereo unspecified) is 58

The reported Potassium voltage-gated channel subfamily A member 5 (Homo sapiens) inhibition of CCc1c(C)[nH]c2c1/C(=N/OC(=O)Nc1ccc(OC)cc1)CCC2 is 90

The reported Potassium voltage-gated channel subfamily A member 5 (Homo sapiens) inhibition of CCc1c2c(n(CC)c1C)CCC/C2=N\OC(=O)Nc1ccccc1 is 35

The reported Potassium voltage-gated channel subfamily A member 5 (Homo sapiens) inhibition of CCc1c2c(n(CC)c1C)CCC/C2=N\OC(=O)Nc1ccc(C(C)=O)cc1 is 71

The reported Potassium voltage-gated channel subfamily A member 5 (Homo sapiens) inhibition of CCc1c(C)[nH]c2c1/C(=N/OC(=O)NCCc1ccccn1)CCC2 is 91

----------
- Measured target: Potassium voltage-gated channel subfamily A member 5 (Homo sapiens, UniProt P22460)
- Sequence (P22460 whole entry): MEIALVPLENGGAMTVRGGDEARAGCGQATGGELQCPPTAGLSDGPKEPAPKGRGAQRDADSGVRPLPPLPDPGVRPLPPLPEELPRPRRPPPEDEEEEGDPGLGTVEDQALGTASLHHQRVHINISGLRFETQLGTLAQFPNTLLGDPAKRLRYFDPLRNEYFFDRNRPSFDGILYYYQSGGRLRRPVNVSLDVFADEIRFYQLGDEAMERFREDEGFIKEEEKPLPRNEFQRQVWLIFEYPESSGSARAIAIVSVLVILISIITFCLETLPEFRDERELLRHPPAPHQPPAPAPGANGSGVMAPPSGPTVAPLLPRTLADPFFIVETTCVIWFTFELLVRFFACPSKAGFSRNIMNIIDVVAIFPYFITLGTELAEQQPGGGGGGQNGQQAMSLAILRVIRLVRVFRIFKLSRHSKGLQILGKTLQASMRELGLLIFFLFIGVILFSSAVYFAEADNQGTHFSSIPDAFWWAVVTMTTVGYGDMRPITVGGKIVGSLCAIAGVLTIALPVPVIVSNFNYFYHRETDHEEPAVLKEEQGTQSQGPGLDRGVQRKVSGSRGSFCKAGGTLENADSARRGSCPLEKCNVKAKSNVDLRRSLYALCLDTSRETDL
- Test description: Inhibition of Kv1.5 expressed in LTK- cells by whole cell patch clamp assay at 1uM
- Assay type: functional, cell-based
Reported values of inhibition for individual entries
Provide the reading as a plain figure in %.

Before answering, review these 3 worked examples.
- Smiles code: "CCc1c2c(n(C)c1CC)CCC/C2=N\\OC(=O)Nc1ccc(C(C)=O)cc1"
  Measured target: "Potassium voltage-gated channel subfamily A member 5 (Homo sapiens, UniProt P22460)"
  inhibition (%): 92
- Smiles code: "Cc1[nH]c2c(c1C)/C(=N/OC(=O)Nc1ccc(Cl)cc1)CCC2"
  Measured target: "Potassium voltage-gated channel subfamily A member 5 (Homo sapiens, UniProt P22460)"
  inhibition (%): 78
- Smiles code: "CCc1c(C)[nH]c2c1/C(=N/OC(=O)Nc1ccc(C(C)(C)C)cc1)CCC2"
  Measured target: "Potassium voltage-gated channel subfamily A member 5 (Homo sapiens, UniProt P22460)"
  inhibition (%): 6

The record that follows has no inhibition shown yet.
The molecule listed as CCc1c(C)[nH]c2c1/C(=N/OC(=O)Nc1cccc(SC)c1)CCC2 has a reported inhibition of 73

----------
Reported values of pIC50 for individual entries
- Measured target: UniProtKB Q12809
- Sequence (Q12809 whole entry): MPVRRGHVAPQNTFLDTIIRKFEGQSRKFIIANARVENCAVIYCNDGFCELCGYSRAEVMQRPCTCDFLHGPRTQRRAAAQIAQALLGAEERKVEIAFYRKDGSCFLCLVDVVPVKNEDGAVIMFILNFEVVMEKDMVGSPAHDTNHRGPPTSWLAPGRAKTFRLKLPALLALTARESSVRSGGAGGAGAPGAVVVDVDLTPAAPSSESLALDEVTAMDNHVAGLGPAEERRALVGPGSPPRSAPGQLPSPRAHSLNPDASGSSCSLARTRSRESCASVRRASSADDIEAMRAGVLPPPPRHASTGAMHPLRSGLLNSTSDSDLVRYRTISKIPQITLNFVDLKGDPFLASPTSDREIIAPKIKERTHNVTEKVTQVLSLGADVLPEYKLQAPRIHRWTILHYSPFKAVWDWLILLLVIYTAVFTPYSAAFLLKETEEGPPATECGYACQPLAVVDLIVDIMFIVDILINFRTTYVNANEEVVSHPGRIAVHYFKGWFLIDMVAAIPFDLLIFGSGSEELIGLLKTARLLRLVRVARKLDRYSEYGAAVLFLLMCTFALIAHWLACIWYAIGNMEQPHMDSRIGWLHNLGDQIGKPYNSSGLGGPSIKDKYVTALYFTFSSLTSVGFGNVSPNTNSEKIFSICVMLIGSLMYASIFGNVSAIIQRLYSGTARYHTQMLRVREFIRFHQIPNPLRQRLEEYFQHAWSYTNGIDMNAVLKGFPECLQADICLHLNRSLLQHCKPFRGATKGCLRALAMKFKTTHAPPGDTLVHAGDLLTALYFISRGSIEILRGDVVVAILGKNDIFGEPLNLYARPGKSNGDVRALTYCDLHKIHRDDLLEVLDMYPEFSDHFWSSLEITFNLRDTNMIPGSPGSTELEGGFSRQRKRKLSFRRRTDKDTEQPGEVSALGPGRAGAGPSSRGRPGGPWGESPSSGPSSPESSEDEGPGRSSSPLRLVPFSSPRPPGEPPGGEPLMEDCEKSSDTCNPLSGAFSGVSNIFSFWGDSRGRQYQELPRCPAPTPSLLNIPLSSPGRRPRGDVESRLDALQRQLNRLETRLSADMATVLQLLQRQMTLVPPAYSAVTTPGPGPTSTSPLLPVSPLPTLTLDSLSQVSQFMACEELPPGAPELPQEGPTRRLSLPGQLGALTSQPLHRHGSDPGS
- Test description: Inhibition of hERG expressed in HEK cells by whole cell patch clamp assay
pIC50: −log10 of the molar value.

The reported UniProtKB Q12809 pIC50 of CCc1c(C)[nH]c2c1/C(=N/OC(=O)Nc1ccccc1)CCC2 is < 4.52

The reported UniProtKB Q12809 pIC50 of CCc1c2c(n(C)c1CC)CCC/C2=N\OC(=O)Nc1ccccc1 is < 4.52

----------
- Measured target: UniProt:P22460
- Test description: Inhibition of Kv1.5 expressed in LTK- cells by whole cell patch clamp assay
- Assay type: functional, cell-based
Reported values of log10(IC50) for individual entries
In plain terms, each number is the log10 of measured IC50 in nM.

Before answering, review these 5 worked examples.
- Smiles code: "CCc1c(C)[nH]c2c1/C(=N/OC(=O)Nc1ccccc1)CCC2"
  Measured target: "UniProt:P22460"
  Quantity name: "log10(IC50)"
  Observed result: 1.83
- Smiles code: "CCc1c2c(n(C)c1C)CCC/C2=N\\OC(=O)Nc1ccc(C(C)=O)cc1"
  Measured target: "UniProt:P22460"
  Quantity name: "log10(IC50)"
  Observed result: 2.57
- Smiles code: "CCc1c(C)[nH]c2c1/C(=N/OC(=O)Nc1ccc(SC)cc1)CCC2"
  Measured target: "UniProt:P22460"
  Quantity name: "log10(IC50)"
  Observed result: 2.54
- Smiles code: "CCc1c(C)[nH]c2c1/C(=N/OC(=O)NCCc1ccccn1)CCC2"
  Measured target: "UniProt:P22460"
  Quantity name: "log10(IC50)"
  Observed result: 2.74
- Smiles code: "CCc1c(C)[nH]c2c1/C(=N/OC(=O)Nc1ccc(F)cc1)CCC2"
  Measured target: "UniProt:P22460"
  Quantity name: "log10(IC50)"
  Observed result: 2.44

The compound listed as CCc1c2c(n(C)c1CC)CCC/C2=N\OC(=O)Nc1ccccc1 has a reported log10(IC50) of 1.32

----------
- Measured target: Potassium voltage-gated channel subfamily A member 5 (Homo sapiens)
- Test description: Inhibition of Kv1.5 expressed in LTK- cells by whole cell patch clamp assay at 1uM
- Format: functional, cell-based
Quantity name: inhibition (%)
Provide the reading as a plain figure in %.

The compound listed as CCc1c(C)[nH]c2c1/C(=N/OC(=O)NCc1ccccc1)CCC2 has a reported inhibition of 70

The compound listed as CCc1c(C)[nH]c2c1/C(=N/OC(=O)Nc1ccc(SC)cc1)CCC2 has a reported inhibition of 90

The compound listed as CCc1c(C)[nH]c2c1/C(=N/OC(=O)Nc1ccc(C(C)=O)cc1)CCC2 has a reported inhibition of 91

The compound listed as CCc1c2c(n(C)c1C)CCC/C2=N\OC(=O)Nc1ccc(C(C)=O)cc1 has a reported inhibition of 96

The compound listed as CC(=O)c1ccc(NC(=O)O/N=C2\CCCC3=C2C2CCCC2N3)cc1 (configuration not stated) has a reported inhibition of 79

The compound listed as CCc1c(C)[nH]c2c1/C(=N/OC(=O)NCCc1cccnc1)CCC2 has a reported inhibition of 25

----------
- Measured target: Potassium voltage-gated channel subfamily A member 5 (Homo sapiens)
- Test description: Inhibition of Kv1.5 expressed in LTK- cells by whole cell patch clamp assay at 1uM
- Format: functional, cell-based
Quantity name: inhibition (%)
Provide the reading as a plain figure in %.

Before answering, review these 5 worked examples.
- Compound: "CCc1c(C)[nH]c2c1/C(=N/OC(=O)NCCc1ccccc1)CCC2"
  Observed result: 76
- Compound: "CCc1c(C)[nH]c2c1/C(=N/OC(=O)Nc1ccc(Cl)cc1)CCC2"
  Observed result: 91
- Compound: "CCc1c2c(n(C)c1CC)CCC/C2=N\\OC(=O)Nc1ccccc1"
  Observed result: 99
- Compound: "CCc1c(C)[nH]c2c1/C(=N/OC(=O)Nc1ccc(F)cc1)CCC2"
  Observed result: 90
- Compound: "CCc1c(C)[nH]c2c1/C(=N/OC(=O)Nc1ccc(C#N)cc1)CCC2"
  Observed result: 95

The compound listed as CCc1[nH]c2c(c1CC)/C(=N/OC(=O)Nc1ccc(Cl)cc1)CCC2 has a reported inhibition of 87

The compound listed as CCc1[nH]c2c(c1CC)/C(=N/OC(=O)Nc1ccccc1)CCC2 has a reported inhibition of 84

The compound listed as CCc1c(C)[nH]c2c1/C(=N/OC(=O)Nc1ccc(C)cc1)CCC2 has a reported inhibition of 85

----------
Reported values of inhibition for individual entries
- Measured target: Potassium voltage-gated channel subfamily A member 5 (Homo sapiens, UniProt P22460)
- Test description: Inhibition of Kv1.5 expressed in LTK- cells by whole cell patch clamp assay at 1uM
- Assay type: functional, cell-based
Provide the reading as a plain figure in %.

Before answering, review these 5 worked examples.
- Molecule: "CC(=O)c1ccc(NC(=O)O/N=C2\\CCCc3[nH]c(C)c(C)c32)cc1"
  Observed result: 60
- Molecule: "CCc1c(C)[nH]c2c1/C(=N/OC(=O)Nc1ccc(C(C)C)cc1)CCC2"
  Observed result: 51
- Molecule: "CCc1c(C)[nH]c2c1/C(=N/OC(=O)Nc1ccccc1SC)CCC2"
  Observed result: 41
- Molecule: "CC(=O)c1ccc(NC(=O)O/N=C2\\CCCc3c2c(C(C)C)c(C)n3C)cc1"
  Observed result: 96
- Molecule: "O=C(Nc1ccccc1)O/N=C1\\CCCC2=C1C1CCCC1N2 (stereo not drawn)"
  Observed result: 79

The reported Potassium voltage-gated channel subfamily A member 5 (Homo sapiens, UniProt P22460) inhibition of CCc1c(C)[nH]c2c1/C(=N/OC(=O)NCCc1ccncc1)CCC2 is 20

The reported Potassium voltage-gated channel subfamily A member 5 (Homo sapiens, UniProt P22460) inhibition of Cc1[nH]c2c(c1C)/C(=N/OC(=O)Nc1ccccc1)CCC2 is 57

The reported Potassium voltage-gated channel subfamily A member 5 (Homo sapiens, UniProt P22460) inhibition of CCc1c2c(n(C)c1C)CCC/C2=N\OC(=O)Nc1ccccc1 is 77
